Kd values by entry
biological target: HLA-A*26:01; test: IEDB peptide-MHC binding, purified MHC/competitive/fluorescence; filed as Kd, often an IC50 or EC50 that approximates it; bounds were set here for any values at or beyond the usual limits of such assays; settings: source organism: Zaire ebolavirus
Quantity name: Kd

# Chain, Quantity name, Experimental value
records = [
    ("IFLKPDETF", "Kd", "≥ 20 µM"),
    ("SQVRVPTVF", "Kd", "≥ 20 µM"),
    ("KVYWAGIEF", "Kd", "≥ 20 µM"),
]

====

target: HLA-A*02:12; test: IEDB peptide-MHC binding, purified MHC/competitive/fluorescence; filed as Kd, often an IC50 or EC50 that approximates it; bounds were set here for any values at or beyond the usual limits of such assays; conditions: source organism: Entamoeba histolytica HM-1:IMSS
pKd: −log10 of the molar value.

# Chain, Test target, pKd
data = [
    ("IGKMNKHYK", "HLA-A*02:12", "≤ 4.70"),
]

====

Kd values by entry
biological target: HLA-B*40:01; assay: IEDB peptide-MHC binding, purified MHC/direct/fluorescence; filed as Kd, often an IC50 or EC50 that approximates it; bounds were set here for any values at or beyond the usual limits of such assays; details: source organism: Mammarenavirus juninense

# Chain, Kd
rows = [
    ("GKLDPTNTL", "≥ 20 µM"),
    ("YAKKFKTGM", "≥ 20 µM"),
]

====

biological target: HLA-A*02:01; assay: IEDB peptide-MHC binding, purified MHC/direct/fluorescence; filed as Kd, often an IC50 or EC50 that approximates it; bounds were set here for any values at or beyond the usual limits of such assays; details: source organism: Influenza A virus (A/Puerto Rico/8/34/Mount Sinai(H1N1))
pKd: −log10 of the molar value.
Quantity name: pKd

# Chain, Experimental value
rows = [
    ("VSPLAVTWW", 5.97),
]

====

biological target: HLA-B*57:01; experiment: IEDB peptide-MHC binding, purified MHC/direct/fluorescence; filed as Kd, often an IC50 or EC50 that approximates it; bounds were set here for any values at or beyond the usual limits of such assays; conditions: source organism: Yersinia pestis
pKd: −log10 of the molar value.

# Chain, pKd
records = [
    ("SDDQLRLLK", "≤ 4.70"),
]

====

biological target: HLA-B*40:02; assay: IEDB peptide-MHC binding, purified MHC/competitive/radioactivity; filed as Kd, often an IC50 or EC50 that approximates it; bounds were set here for any values at or beyond the usual limits of such assays; settings: source organism: SARS coronavirus Tor2
Quantity name: log10 of Kd (log10 of the value in nM)

# Chain, Test target, log10 of Kd
measured = [
    ("EEAIRHVRA", "HLA-B*40:02", 3.74),
    ("EEVVLKNGEL", "HLA-B*40:02", 1.14),
    ("MEAQFLYLY", "HLA-B*40:02", 3.35),
    ("WEILKFLITG", "HLA-B*40:02", 2.73),
    ("QELLIQQWI", "HLA-B*40:02", 1.79),
    ("GESVKTQFNY", "HLA-B*40:02", 2.69),
    ("METDFLELAM", "HLA-B*40:02", 2.46),
    ("REGVFVFNG", "HLA-B*40:02", 2.35),
    ("FEVLAVEDT", "HLA-B*40:02", 3.27),
    ("SDEVARDLSL", "HLA-B*40:02", 4.03),
    ("AEWVLAYMLF", "HLA-B*40:02", 1.28),
    ("CEEMLDNRAT", "HLA-B*40:02", 3.93),
    ("RELNGGAVT", "HLA-B*40:02", 1.34),
]

====

target: HLA-B*27:03; assay: IEDB peptide-MHC binding, purified MHC/direct/fluorescence; filed as Kd, often an IC50 or EC50 that approximates it; bounds were set here for any values at or beyond the usual limits of such assays; conditions: source organism: Vibrio vulnificus YJ016
pKd: −log10 of the molar value.
Quantity name: pKd

# Chain, Experimental value
rows = [
    ("SVFELSNFA", "≤ 4.70"),
]

====

pKd values by entry
molecular target: HLA-A*33:01; assay: IEDB peptide-MHC binding, purified MHC/competitive/radioactivity; filed as Kd, often an IC50 or EC50 that approximates it; bounds were set here for any values at or beyond the usual limits of such assays; details: source organism: SARS coronavirus Tor2
pKd: −log10 of the molar value.

# Chain, Test target, Bound type, pKd
records = [
    ("GSFCTQLNR", "HLA-A*33:01", "≤", 4.48),
    ("AINSVPWSK", "HLA-A*33:01", "=", 4.97),
    ("GLLATNNVFR", "HLA-A*33:01", "=", 5.23),
    ("ALILAYSNK", "HLA-A*33:01", "≤", 4.36),
    ("TVKPGNFNK", "HLA-A*33:01", "=", 6.00),
    ("LLFADINGK", "HLA-A*33:01", "≤", 4.29),
    ("VVNARLRAK", "HLA-A*33:01", "≤", 4.60),
    ("TSRTLSYYK", "HLA-A*33:01", "=", 5.62),
    ("SAGFSLWIYK", "HLA-A*33:01", "=", 5.46),
    ("YMSALNHTK", "HLA-A*33:01", "=", 5.95),
    ("SVKTQFNYFK", "HLA-A*33:01", "=", 6.09),
]

====

biological target: HLA-A*68:02; assay: IEDB peptide-MHC binding, purified MHC/direct/fluorescence; filed as Kd, often an IC50 or EC50 that approximates it; bounds were set here for any values at or beyond the usual limits of such assays; settings: source organism: Cryptosporidium parvum Iowa II
Quantity name: Kd

# Chain, Quantity name, Experimental value
measured = [
    ("GFPFFIMPK", "Kd", "≥ 20 µM"),
]

====

target: HLA-B*07:02; assay: IEDB peptide-MHC binding, purified MHC/competitive/radioactivity; filed as Kd, often an IC50 or EC50 that approximates it; bounds were set here for any values at or beyond the usual limits of such assays; settings: source organism: Variola virus
Quantity name: Kd (nM)

# Chain, Quantity name, Experimental value
measured = [
    ("KPKPAVRYAI", "Kd", 4.72),
]

====

biological target: HLA-A*02:03; test: IEDB peptide-MHC binding, purified MHC/competitive/radioactivity; filed as Kd, often an IC50 or EC50 that approximates it; bounds were set here for any values at or beyond the usual limits of such assays; conditions: source organism: Vaccinia virus WR
pKd: −log10 of the molar value.
pKd values by entry

# Chain, Bound type, pKd
rows = [
    ("LMIFISSFLL", "=", 7.10),
    ("KLRSSPPIPM", "=", 6.87),
    ("SFSLESDSIK", "≤", 4.15),
    ("DAKRNSKSLV", "=", 5.54),
    ("ITNILGGVL", "=", 5.61),
    ("KVYNGIFVDT", "=", 5.84),
    ("IVTFINDYA", "=", 5.53),
    ("MLTNAISSRV", "=", 9.98),
    ("IVAAVIIMAI", "=", 5.58),
    ("SASDMQKFTI", "=", 5.91),
    ("ATLNTLITLI", "=", 7.55),
]

====

target: HLA-A*69:01; assay: IEDB peptide-MHC binding, purified MHC/direct/fluorescence; filed as Kd, often an IC50 or EC50 that approximates it; bounds were set here for any values at or beyond the usual limits of such assays; settings: source organism: Escherichia coli O157:H7

# Chain, Kd
records = [
    ("YLGTPNNTY", "≥ 20 µM"),
]

====

molecular target: HLA-A*68:02; experiment: IEDB peptide-MHC binding, purified MHC/competitive/radioactivity; filed as Kd, often an IC50 or EC50 that approximates it; bounds were set here for any values at or beyond the usual limits of such assays; settings: source organism: Dengue virus 2 Jamaica/1409/1983
pKd: −log10 of the molar value.
pKd values by entry

# Chain, pKd
measured = [
    ("RSTSLSVSLV", 6.60),
    ("SVNMISRMLI", 6.63),
    ("MVNGVVRLL", 7.59),
    ("ELMMATIGI", 8.99),
]

====

target: HLA-A*02:03; test: IEDB peptide-MHC binding, purified MHC/competitive/radioactivity; filed as Kd, often an IC50 or EC50 that approximates it; bounds were set here for any values at or beyond the usual limits of such assays; details: source organism: Dengue virus 1 Brazil/97-11/1997

# Chain, Kd, nM
data = [
    ("ILNPYMPSVV", 3.26),
    ("FMTATPPGSV", 1.67),
    ("KMLMTGTLAV", 10),
]

// data source = the Immune Epitope Database (IEDB)
